# run_description: Phase 1b MAD plasma pharmacokinetics, non-compartmental analysis
# Type: in vivo, human
# condition_parameters: human, plasma, po, 10 mg, Cohort A healthy, 10 mg QD oral, Day 1; mean ± SD; read-out: Average of Cmax
measured_metric: Cmax (ng/mL)

INSERT INTO results (molecule, result_number) VALUES
  ('CC1(Cc2ccccc2)COc2cc(C(=O)N3CCCCC3)ccc21 (stereo not shown)', 35.6);

----------
# run_description: Phase 1b MAD plasma pharmacokinetics, non-compartmental analysis
# Format: in vivo, human
# condition_parameters: human, plasma, po, 360 mg SDD, Table 35 (interim): Cohort D (AD), 360 mg SDD (90 mg NTRX-07) QD oral, Day 7; mean ± S.D.; read-out: Vd/F
measured_metric: Vd/F (L)

INSERT INTO results (compound, result_number) VALUES
  ('CC1(Cc2ccccc2)COc2cc(C(=O)N3CCCCC3)ccc21 (stereo not shown)', 1540);

----------
# run_description: Phase 1b MAD plasma pharmacokinetics, non-compartmental analysis
# Type: in vivo, human
# condition_parameters: human, plasma, po, 10 mg, Table 19 (interim): Cohort A, 40 mg SDD (10 mg NTRX-07) QD oral, Day 1; mean ± S.D.
# Procedure: Methods: All study procedures were approved by the IRB, and informed consent was obtained. […] Subjects were assessed for changes in vital signs, including maneuvers to induce lightheadedness, electrocardiograms, 24-hour electroencephalograms (EEG), and safety laboratory studies. […] Raw bioanalytical data were received from Nuvisan following analysis of plasma samples from each of four cohorts. PK parameters were calculated by noncompartmental analysis using standard equations. […]
measured_metric: AUC over 24 h (AUC0-24) (ng·h/mL)

INSERT INTO results (compound, measured_metric, result_number) VALUES
  ('CC1(Cc2ccccc2)COc2cc(C(=O)N3CCCCC3)ccc21 (stereo not shown) [NTRX-07]', 'AUC over 24 h (AUC0-24)', 93);

----------
# run_description: Phase 1b MAD plasma pharmacokinetics, non-compartmental analysis
# Type: in vivo, human
# condition_parameters: human, plasma, po, 30 mg, Table 13: Cohort B Fed, 30 mg oral, fed state; mean ± S.D.; read-out: Tmax
measured_metric: Tmax (h)

INSERT INTO results (compound, result_number) VALUES
  ('CC1(Cc2ccccc2)COc2cc(C(=O)N3CCCCC3)ccc21 (stereo not shown)', 2.4);

----------
# run_description: Phase 1b MAD plasma pharmacokinetics, non-compartmental analysis
# Type: in vivo, human
# condition_parameters: human, plasma, po, 30 mg, Cohort B healthy, 30 mg QD oral, Day 7; mean ± SD; read-out: Average of Tmax
measured_metric: Tmax (min)

INSERT INTO measurements (molecule, result_number) VALUES
  ('CC1(Cc2ccccc2)COc2cc(C(=O)N3CCCCC3)ccc21 (stereo not shown) [NTRX-07]', 36);

----------
# run_description: Phase 1b MAD plasma pharmacokinetics, non-compartmental analysis
# Format: in vivo, human
# condition_parameters: human, plasma, po, 360 mg SDD, Table 30 (interim): Cohort C, 360 mg SDD (90 mg NTRX-07) QD oral, Day 7; mean ± S.D.; read-out: Tmax
measured_metric: Tmax (h)

INSERT INTO measurements (molecule, result_number) VALUES
  ('CC1(Cc2ccccc2)COc2cc(C(=O)N3CCCCC3)ccc21 (stereo not shown)', 1.3);

----------
# run_description: Phase 1b MAD plasma pharmacokinetics, non-compartmental analysis
# Format: in vivo, human
# condition_parameters: human, plasma, po, 90 mg, Table 17: Cohort D (AD), 90 mg QD oral, Day 7; mean ± S.D.; read-out: Cmax
measured_metric: Cmax (ng/mL)

INSERT INTO measurements (compound, result_number) VALUES
  ('CC1(Cc2ccccc2)COc2cc(C(=O)N3CCCCC3)ccc21 (stereo not shown)', 240);

----------
# run_description: Phase 1b MAD plasma pharmacokinetics, non-compartmental analysis
# Assay type: in vivo, human
# condition_parameters: human, plasma, po, 30 mg, Table 13: Cohort B Fed, 30 mg oral, fed state; mean ± S.D.; read-out: AUClast
# Method: Methods: All study procedures were approved by the IRB, and informed consent was obtained. […] Subjects were assessed for changes in vital signs, including maneuvers to induce lightheadedness, electrocardiograms, 24-hour electroencephalograms (EEG), and safety laboratory studies. […] Raw bioanalytical data were received from Nuvisan following analysis of plasma samples from each of four cohorts. PK parameters were calculated by noncompartmental analysis using standard equations. […]
measured_metric: AUC(0-t) (ng·h/mL)

INSERT INTO measurements (compound, measured_metric, measurement_unit, result_number) VALUES
  ('CC1(Cc2ccccc2)COc2cc(C(=O)N3CCCCC3)ccc21 (stereo not shown) [NTRX-07]', 'AUC(0-t)', 'ng·h/mL', 390);

----------
# run_description: Phase 1b MAD plasma pharmacokinetics, non-compartmental analysis
# Type: in vivo, human
# condition_parameters: human, plasma, po, 90 mg, Table 17: Cohort D (AD), 90 mg QD oral, Day 7; mean ± S.D.
measured_metric: AUC over 24 h (AUC0-24) (ng·h/mL)

INSERT INTO results (compound, result_number) VALUES
  ('CC1(Cc2ccccc2)COc2cc(C(=O)N3CCCCC3)ccc21 (stereo not shown) [NTRX-07]', 806);

----------
# run_description: Phase 1b MAD plasma pharmacokinetics, non-compartmental analysis
# Format: in vivo, human
# condition_parameters: human, plasma, po, 30 mg, Table 11: Cohort B, 30 mg QD oral, Day 1; mean ± S.D.; read-out: AUClast
measured_metric: AUC(0-t) (ng·h/mL)

INSERT INTO measurements (compound, result_number) VALUES
  ('CC1(Cc2ccccc2)COc2cc(C(=O)N3CCCCC3)ccc21 (stereo not shown) [NTRX-07]', 328);

----------
# run_description: Phase 1b MAD plasma pharmacokinetics, non-compartmental analysis
# Format: in vivo, human
# condition_parameters: human, plasma, po, 90 mg, Table 14: Cohort C, 90 mg QD oral, Day 1; mean ± S.D.; read-out: Cmax
measured_metric: Cmax (ng/mL)

INSERT INTO assay_data (compound, measured_metric, result_number) VALUES
  ('CC1(Cc2ccccc2)COc2cc(C(=O)N3CCCCC3)ccc21 (stereo not shown)', 'Cmax', 400);

----------
# run_description: Phase 1b MAD plasma pharmacokinetics, non-compartmental analysis
# Type: in vivo, human
# condition_parameters: human, plasma, po, 30 mg, Table 11: Cohort B, 30 mg QD oral, Day 1; mean ± S.D.; read-out: Cmax
measured_metric: Cmax

INSERT INTO results (molecule, result) VALUES
  ('CC1(Cc2ccccc2)COc2cc(C(=O)N3CCCCC3)ccc21 (stereo not shown) [NTRX-07]', '109 ng/mL');

----------
# run_description: Phase 1b MAD plasma pharmacokinetics, non-compartmental analysis
# Format: in vivo, human
# condition_parameters: human, plasma, po, 90 mg, Table 15: Cohort C, 90 mg QD oral, Day 7; mean ± S.D.; read-out: Tmax
# Protocol: Methods: All study procedures were approved by the IRB, and informed consent was obtained. […] Subjects were assessed for changes in vital signs, including maneuvers to induce lightheadedness, electrocardiograms, 24-hour electroencephalograms (EEG), and safety laboratory studies. […] Raw bioanalytical data were received from Nuvisan following analysis of plasma samples from each of four cohorts. PK parameters were calculated by noncompartmental analysis using standard equations. […]
measured_metric: Tmax (h)

INSERT INTO assay_data (compound, measured_metric, result_number) VALUES
  ('CC1(Cc2ccccc2)COc2cc(C(=O)N3CCCCC3)ccc21 (stereo not shown)', 'Tmax', 1.3);

----------
# run_description: Phase 1b MAD plasma pharmacokinetics, non-compartmental analysis
# Type: in vivo, human
# condition_parameters: human, plasma, po, 90 mg, Table 16: Cohort D (AD), 90 mg QD oral, Day 1; mean ± S.D.; read-out: AUClast
measured_metric: AUC(0-t) (ng·h/mL)

INSERT INTO assay_data (compound, result_number) VALUES
  ('CC1(Cc2ccccc2)COc2cc(C(=O)N3CCCCC3)ccc21 (stereo not shown)', 1560);

----------
# run_description: Phase 1b MAD plasma pharmacokinetics, non-compartmental analysis
# Assay type: in vivo, human
# condition_parameters: human, plasma, po, 10 mg, Table 20 (interim): Cohort A, 40 mg SDD (10 mg NTRX-07) QD oral, Day 7; mean ± S.D.; read-out: Vd/F
measured_metric: Vd/F (L)

INSERT INTO measurements (compound, result_number) VALUES
  ('CC1(Cc2ccccc2)COc2cc(C(=O)N3CCCCC3)ccc21 (stereo not shown)', 1230);
